assay: TLR3 IRF3 reporter activation blockers – cell-based, poly I:C stimulus, luciferase, 10K MLSCN set, primary screen (AID 602277); settings: HEK293-TLR3 RL24 IRF3 luciferase reporter, at 10 µM
The source made the active and inactive calls.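 Rule for the calls: active = inhibition of the reporter signal at or above 50%; inactive = inhibition below 50%.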
Classes used: active, inactive

INSERT INTO measurements (compound, discrete_label) VALUES
  ('O=C(Cn1cnc2c(cnn2-c2ccc(F)cc2)c1=O)N1CCCc2ccccc21', 'inactive'),
  ('C=CCn1c(-c2ccccc2)c[nH]c1=S', 'inactive'),
  ('COc1ccc(N2CCN(Cc3cc(=O)oc4cc(C)c(Cl)c(C)c34)CC2)cc1', 'inactive'),
  ('O=C1N(CCCCN2C(=O)C3(OCCO3)c3ccccc32)c2ccccc2C12OCCO2', 'inactive'),
  ('O=C(Nc1cccc(Cl)c1)N1CCN(Cc2ccccc2)CC1', 'inactive'),
  ('CCN(CC)c1ccc(-c2c(C#N)c(N)nc(OC)c2C#N)cc1', 'inactive'),
  ('COc1ccc(S(=O)(=O)N2CCN(Cc3ccc(Cl)cc3)CC2)cc1', 'inactive'),
  ('C=CCn1c(SCC(=O)Nc2cccc(OC)c2)nnc1-c1cccnc1', 'inactive'),
  ('CCn1c(SCc2cccc(C(F)(F)F)c2)nnc1-c1ccco1', 'inactive'),
  ('CCSCCNC(=O)c1cc(-n2cnnc2)ccc1Cl', 'inactive'),
  ('COc1ccc(Br)cc1C1N2CC3(C)CN1CC(C)(C2)C3=O (centres undefined)', 'inactive'),
  ('CSc1ccccc1N=CC1=C(O)CC(C)(C)CC1=O', 'inactive'),
  ('C=CCN(CC=C)C(=O)c1ccncc1', 'inactive'),
  ('Cc1nnc2c3ccccc3c(-c3ccccc3)nn12', 'active'),
  ('COc1ccc(NC(=O)c2cc(C3CC3)on2)c(OC)c1', 'inactive'),
  ('Cc1ccc(S(=O)(=O)N2CCOCC(=O)NCCOCCNC(=O)COCC2)cc1', 'inactive'),
  ('Cc1cccc(-n2ncc3c(N(CCO)CCO)ncnc32)c1', 'inactive'),
  ('CC1(C)CC(=O)C2=C(C1)NC(=O)CC2C(=O)NCc1ccc(F)cc1 (centres undefined)', 'inactive'),
  ('COC(=O)C1=C(C)NC(=O)C1(Nc1ccc(Cl)cn1)C(F)(F)F (centres undefined)', 'inactive'),
  ('CCOC(=O)N1CCC(NC(=O)c2cc(C(=O)NC3CCCC3)ccc2CO)CC1', 'inactive'),
  ('O=C(Nc1nccs1)c1cccc(NC(=O)C2CC2)c1', 'inactive'),
  ('O=C(Nc1nnc(COc2ccc(F)cc2)s1)c1cccs1', 'inactive'),
  ('CCOC(=O)Cn1nc(-c2ccc(C)cc2)ccc1=O', 'inactive'),
  ('c1ccc(-c2nnc(CSc3nncs3)o2)cc1', 'inactive');

Source listed as PubChem BioAssay.
